Target: Estrogen receptor (Homo sapiens)
Assay: ATG_hERa_XSP1: Attagene TRANS-FACTORIAL Multi-Species (XSP1) HepG2 Assay for human Estrogen Receptor (ESR1) (AID 2283780)
Results filed as inconclusive are left out. Activity calls are given as the source filed them. The calls were made as follows: active = hit-call score of the fitted dose curve at least 0.9, where 1 is the maximum; inconclusive = response in the unintended direction; inactive = score below 0.9.
Write down one outcome, taken from 1 for active, -1 for inactive

CC(C)Oc1cc(-n2nc(C(C)(C)C)oc2=O)c(Cl)cc1Cl :: 1

Data request: Record request — test call for CCCN(CCC)c1c([N+](=O)[O-])cc(S(N)(=O)=O)cc1[N+](=O)[O-]
Data returned: 1

###

Assay: BSK_3C_SRB: Viability Assessment in the BioMAP Diversity Plus: 3C Assay (AID 2283023);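 also: cells read 24 h after compound dosing; fitted both ways against DMSO so a hit may be signal rise or drop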
Conditions: primary human endothelial cells (HUVEC)
The source made the active and inactive calls. How the source made its calls: active means hit-call score of the fitted dose curve at least 0.9, where 1 is the maximum; inactive means score below 0.9.
Write down one outcome, taken from 1 for active, 0 for inactive

Example entries begin here.
CN(C)C(=S)SSC(=S)N(C)C :: 0
CC1COC(Cn2cncn2)(c2ccc(Oc3ccc(Cl)cc3)cc2Cl)O1 (configuration not stated) :: 1
COC(=O)c1ccccc1C(=O)OC :: 0
CO/C=C(/C(=O)OC)c1ccccc1Oc1cc(Oc2ccccc2C#N)ncn1 :: 1
Oc1ccccc1-c1ccccc1 :: 0

Data request: Record request — test call for CC(C)(C)c1ccc(CSc2cnn(C(C)(C)C)c(=O)c2Cl)cc1
Data returned: 1

Data request: Now consider C=CCC1=C(C)[C@@H](OC(=O)[C@@H]2[C@@H](C=C(C)C)C2(C)C)CC1=O .
Data returned: 1

Data request: Now consider COP(=S)(OC)Oc1nc(Cl)c(Cl)cc1Cl .
Data returned: 1

Data request: Now consider CCOC(=O)CC(SP(=S)(OC)OC)C(=O)OCC (configuration not stated) .
Data returned: 0

Data request: Now consider CS/C(C)=N/OC(=O)N(C)SN(C)C(=O)O/N=C(\C)SC .
Data returned: 1

Data request: Now consider CC1=C(C(=O)Nc2ccccc2)SCCO1 .
Data returned: 0

Data request: Now consider CNC(=O)ON=CC(C)(C)SC .
Data returned: 0
